- SYSTEM_TESTED: human NK1r (Homo sapiens, UniProt P25103)
- Sequence (P25103 whole entry): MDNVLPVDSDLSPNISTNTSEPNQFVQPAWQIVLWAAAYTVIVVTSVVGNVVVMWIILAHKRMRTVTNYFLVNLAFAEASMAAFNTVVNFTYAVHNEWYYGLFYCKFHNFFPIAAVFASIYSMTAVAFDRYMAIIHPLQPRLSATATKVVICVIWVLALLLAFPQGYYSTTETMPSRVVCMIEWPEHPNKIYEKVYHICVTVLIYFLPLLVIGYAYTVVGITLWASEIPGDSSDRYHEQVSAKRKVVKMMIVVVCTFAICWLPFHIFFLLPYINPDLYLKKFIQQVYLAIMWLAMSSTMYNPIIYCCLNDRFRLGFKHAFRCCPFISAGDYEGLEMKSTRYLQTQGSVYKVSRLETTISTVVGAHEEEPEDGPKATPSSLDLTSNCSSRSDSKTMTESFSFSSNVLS
MEASURED_ATTRIBUTE: Ki (nM)
Write the value in nM as a bare number.

Form field Ki for item CN(C[C@@H](CCN1CCC(c2ccccc2[S@+](C)[O-])CC1)c1ccc(Cl)c(Cl)c1)C(=O)c1cc(C#N)cc2ccccc12 on human NK1r (Homo sapiens, UniProt P25103): 0.31

----------
# gerbil NK1r (Meriones unguiculatus, UniProt Q5DUB1): Ki values follow
# Sequence (Q5DUB1 whole entry): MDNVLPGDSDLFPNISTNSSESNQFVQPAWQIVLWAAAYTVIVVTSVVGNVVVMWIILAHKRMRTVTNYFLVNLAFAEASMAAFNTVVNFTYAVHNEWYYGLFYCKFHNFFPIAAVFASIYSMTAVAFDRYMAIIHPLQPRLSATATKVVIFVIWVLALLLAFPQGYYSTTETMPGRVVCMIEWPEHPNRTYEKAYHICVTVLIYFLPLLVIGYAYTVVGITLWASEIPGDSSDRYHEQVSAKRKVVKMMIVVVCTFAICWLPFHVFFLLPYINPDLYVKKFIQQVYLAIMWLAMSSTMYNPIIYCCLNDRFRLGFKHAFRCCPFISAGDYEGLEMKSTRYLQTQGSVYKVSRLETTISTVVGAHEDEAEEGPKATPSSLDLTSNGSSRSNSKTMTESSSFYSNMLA
Write the value in nM as a bare number.

COc1ccccc1CN[C@H]1CCCN[C@H]1c1ccccc1 [CP 99994] | 0.81

Turning now to a further compound:
Form field Ki for item C[C@@H](O[C@H]1OCCN(Cc2n[nH]c(=O)[nH]2)[C@H]1c1ccc(F)cc1)c1cc(C(F)(F)F)cc(C(F)(F)F)c1 [MK 869, aprepitant] on gerbil NK1r (Meriones unguiculatus, UniProt Q5DUB1): 0.16
